# MEASUREMENT TARGET: UniProt P35372
# Sequence (P35372 whole entry): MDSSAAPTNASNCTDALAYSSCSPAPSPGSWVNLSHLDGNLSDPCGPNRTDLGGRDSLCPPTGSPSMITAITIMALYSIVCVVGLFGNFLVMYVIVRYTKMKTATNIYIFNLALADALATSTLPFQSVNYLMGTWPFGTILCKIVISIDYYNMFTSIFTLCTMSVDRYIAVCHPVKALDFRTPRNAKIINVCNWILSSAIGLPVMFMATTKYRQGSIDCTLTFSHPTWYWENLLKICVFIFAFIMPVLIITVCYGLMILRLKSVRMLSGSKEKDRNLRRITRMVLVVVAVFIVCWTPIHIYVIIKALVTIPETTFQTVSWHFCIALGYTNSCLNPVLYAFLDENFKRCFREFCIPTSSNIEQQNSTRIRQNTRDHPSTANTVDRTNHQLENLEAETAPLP
# TEST NAME: biochemical
# Format: binding
# Design: expressed in transfected cells; host or cells: CHO-K1 (cell lines provided by Dr. Toll, Torrey Pines Institute)
pKi: −log10 of the molar value.

COMPOUND	pKi
CC[C@H]1CC2C[C@H]3c4[nH]c5ccc(O)cc5c4CCN(C2)C13 [Noribogaine]	5.82
CC[C@H]1CC2C[C@H]3c4[nH]c5ccc(OC)cc5c4CCN(C2)C13 [Ibogaine, reference compound]	5.16

Numbers sourced from patent US20150258108A1.
